Tested on: SK-MEL-2 melanoma
Assay: NCI-60 one-dose screen, 48 h (100 = growth as untreated, 0 = no growth, -100 = all killed)
Conditions: 10 µM unless noted
Compounds without any hit were thinned out: in the full panel of roughly 83,000, 20% have a hit.
Answer 0 if growth is under 90%, and 1 if it is 90% or more.

• Cc1cccc(Cl)c1NC(=O)c1ccc2nc(NC(=O)NCCN(C)C)sc2c1 = 1
• Cc1ccc(-n2c(=S)[nH]c3sc4c(c3c2=O)CCC(=O)C4)cc1 = 0
• CCCCCCCCn1ccc2cc(NC(=O)CN3CCN(c4nc(C)cc(Cl)n4)CC3)ccc21 = 1
• CC[C@]12C=CCN3CC[C@@]4(c5cc(NC(=O)CCC(=O)OCc6cn(Cc7ccc(F)cc7)nn6)c(OC)cc5N(C)[C@H]4[C@@](O)(C(=O)OC)[C@@H]1OC(C)=O)[C@@H]32 = 1
• Cn1c(-c2ccc(Br)cc2)c(O)c(=O)c2c(F)cccc21 = 0
• Cc1ccccc1NC(=O)c1sc2nc(C)c(C(=O)/C=C/c3ccccc3)cc2c1N = 0
• CCNc1nc(-c2ccc(Cl)c(OC)c2)c(-c2ccnc(NCCCNS(=O)(=O)c3ccc(Cl)cc3)n2)s1 = 0
• CO/N=C(/C)c1ccc(NC(=O)CSc2nnc(-c3ccncc3)n2-c2ccccc2)cc1 = 0
• CN1CCN(C(=O)c2ccc(NC(=O)Nc3ccc(-c4nc(N5CCOCC5)c5cccn5n4)cc3)cc2)CC1 = 0
• C#Cc1cccc(Nc2ncnc3ccc(-c4cncc(NS(C)(=O)=O)c4)cc23)c1 = 0

# bool: growth of CC(=O)OC[C@]12CCC(C)(C)C[C@H]1[C@@]1(O)[C@H](O)C[C@@H]3[C@@]4(C)CCCNC(C)(C)[C@@H]4CC[C@@]3(C)[C@]1(C)CC2 >= 90% 1

Please tell me: is the molecule COc1ccc2nc3ccc(OC)cc3c(SCCCN)c2c1 at or over 90% in terms of growth? 1

In plain terms: is recorded growth at least 90% for O=C(Nc1cc(Cl)ccc1O)c1ccc(Nc2ccnc(C(F)(F)F)c2)cc1 ? 0

Reported growth at or above 90%? CCCC(=O)NC(c1ccc2c(c1)OCO2)c1ccc2cccnc2c1O (configuration not stated) 0

Decide: growth of CC(=O)Nc1nc2ccc(NS(=O)(=O)c3cccc4c(N(C)C)cccc34)cc2[nH]1 >= 90%? 0

hey, is growth for this one >= 90%? CO[C@H]1/C=C(/C)CCC[C@H](C)[C@H](O)[C@@H](C)C(=O)C(C)(C)[C@@H](O)CC(=O)O[C@@H]1/C(C)=C/c1csc(C)n1 0

Is growth at least 90%? Consider C=C(C)[C@@H]1CC[C@]2(C(=O)NCCNCCN)CC[C@]3(C)[C@H](CC[C@@H]4[C@@]5(C)C/C(=C/c6ccncc6)C(=O)C(C)(C)[C@@H]5CC[C@]43C)[C@@H]12 1

Check if growth >= 90% (inclusive). Item: CC(C)(C)n1cc(-c2ccnc(NCCNS(=O)(=O)c3cccc(F)c3)c2)c(-c2ccccc2)n1 1

Determine whether this molecule has growth no lower than 90%: COc1cc(-c2nc(SCC(C)C)nc(Nc3cccc4ccccc34)c2C#N)cc(OC)c1OC 1

Please tell me: is the molecule COc1cccc(/C=C/C(=O)c2cc3c(N)c(C(=O)Nc4ccccc4)sc3nc2C)c1 at or over 90% in terms of growth? 0

Textbook exercise: given the entry CN1CCN(Cc2ccc(NC(=O)c3cncc(C#Cc4cnc(N)c5ccccc45)c3)cc2C(F)(F)F)CC1 , state whether its growth is greater than or equal to 90%. 0

Determine whether this molecule has growth no lower than 90%: CN(C)CCCn1c2c(c3ncccc3c1=O)C(=O)c1ccccc1-2 0

Given the entry CN(C)CCNC(=O)c1cccc(-c2cnc3ccc(-c4ccc5c(c4)OCO5)nn23)c1 , answer whether its growth meets or surpasses 90%. 0

Given the entry CCC(=C(c1ccc(OCCN2CCCC2)cc1)c1ccc(OCCN2CCCC2)cc1)c1ccc(Cl)cc1 , answer whether its growth meets or surpasses 90%. 0

###

Tested on: BT-549 breast
Test: NCI-60 one-dose screen, 48 h
Settings: 10 µM unless noted
This is part of a sample that, as a whole, favours compounds with a hit. Of some 83,000 tested, about 20% had one in any assay. Active and inactive are the calls of the source. The calls were made as follows: active = growth percent below 10; inactive = the rest.
Select the matching outcome among YES = active, NO = inactive

Solved cases below.
- Cn1cc(-c2csc(-c3ccc(Cl)cc3)n2)c2cccnc21: YES
- Cc1cnc(C(=O)NNc2nc3sc4c(c3c(=O)n2C)C(C)CCC4)cn1 (stereo not drawn): NO
- O=C(Cn1c(=O)sc2nc3ccccc3nc21)Nc1ncc(Cc2cccc(Cl)c2Cl)s1: NO

# fetch the recorded call for O=[N+]([O-])c1ccc(S(=O)(=O)N2CCN(C3=NS(=O)(=O)c4ccccc4N3c3ccccc3)CC2)cc1 here NO

Which outcome did this test record for the molecule C=C1C(=O)O[C@H]2[C@H]1CC/C(COC(=O)CCSCCC(=O)OC/C1=C/CC[C@@]3(C)O[C@H]3[C@H]3OC(=O)C(=C)[C@@H]3CC1)=C\CC[C@@]1(C)O[C@@H]21 ? YES

Per the records of this test, what outcome belongs to O=C1NCCC12CCN(c1c(Cl)cncc1-c1ccc(O)cc1)CC2 ? NO

Lab log entry: CN(C)c1ccc(/C=C/C(=O)c2ccc(-n3cc(CN4CCN(c5cc6c(cc5F)c(=O)c(C(=O)O)cn6C5CC5)CC4)nn3)cc2)cc1 — outcome as called in the assay? NO

Which outcome was assigned to Cc1ccc(-c2cc(-c3ccc(Cl)cc3)nc(NC(=O)c3cccnc3)n2)cc1 in this test? NO

###

Tested on: NCI-H522 lung
Experiment: NCI-60 one-dose screen, 48 h (100 = growth as untreated, 0 = no growth, -100 = all killed)
Settings: 10 µM unless noted
The panel holds about 83,000 compounds, 20% with a hit somewhere; the sample as a whole holds those more often. Calls of active or inactive are those of the source. How the source made its calls: active means growth percent below 10; inactive means the rest.
observedProperty: growth

Previously resolved entries follow.
* Oc1c(Cl)cc(Cl)cc1/C=N/Nc1nnc(N/N=C/c2cc(Cl)cc(Cl)c2O)c2ccccc12 | 14.1% (inactive)
* CCOC(=O)c1c(NC(=O)c2ccc(C(C)C)cc2)sc2c(CN(C)C)c(O)ccc12 | 97.2% (inactive)
* O=C1Nc2ccccc2/C1=C\c1nc(-c2ccccc2)n2ccccc12 | 77.7% (inactive)
* COC(=O)c1c2c(c(C)[n+]([O-])c1C)C(=O)C=C(NCc1ccc(OC)cc1)C2=O | -19.5% (active)

Recorded result, CO[C@H]1/C=C(/C)CCC[C@H](C)[C@H](O)[C@@H](C)C(=O)C(C)(C)[C@@H](O)CC(=O)O[C@@H]1/C(C)=C/c1csc(C)n1 , growth: -29.1% (active)

Entry under test: O=C(Nc1cccnc1Nc1ccc(F)cc1)c1cn(Cc2cccc(Oc3ccccc3)c2)nn1 . Its growth was 64.7% (inactive)

###

Tested on: IGROV1 ovarian
Experiment: NCI-60 one-dose screen, 48 h
Details: 10 µM unless noted
The panel holds about 83,000 compounds, 20% with a hit somewhere; the sample as a whole holds those more often. Calls of active or inactive are those of the source. How the source made its calls: active means growth percent below 10; inactive means the rest.
Can you answer with just one of these options? True (active), False (inactive)

• N#Cc1nn(-c2cc(=O)[nH]c3ccc(Cl)cc23)c(N)c1C#N = False
• CN(C)CCNc1nc2c3cc(Cl)ccc3nn2c2ccccc12 = False
• Cc1ccc(C2=Nc3c(N)ncnc3NC(c3ccc4c(c3)OCO4)C2)cc1 (stereo unspecified) = False
• Cc1oc(-c2ccc(Cl)cc2)nc1/C=C/C(=O)c1ccccc1 = False
• Cc1nnc(-n2c(O)cc(=O)n(-c3ccccc3)c2=S)nc1/C=C/c1ccc(N(C)C)cc1 = False

// next entry
Name the outcome recorded for Cc1cc(N)c2cc(NC(=O)/C=C\c3ccccc3Cl)ccc2n1 in the assay. True

###

Test system: IGROV1 ovarian
Assay: NCI-60 one-dose screen, 48 h (100 = growth as untreated, 0 = no growth, -100 = all killed)
Settings: 10 µM unless noted
This is part of a sample that, as a whole, favours compounds with a hit. Of some 83,000 tested, about 20% had one in any assay.
# growth listing for each entry below
# output: bare number, implied unit %

- O=C(CCCCCCN1CC(=O)N2[C@H](c3cc(Br)cs3)c3[nH]c4ccccc4c3C[C@H]2C1=O)NO: 40.7
- COc1cc2c(c(OC)c1OC)C(=O)CC(c1cccc(NC(=O)c3ccc(Br)cc3)c1)O2 (stereo not given): 45.9
- COc1ccc2[nH]cc(C(c3cc(F)cc(F)c3)c3c[nH]c4ccc(OC)cc34)c2c1: -7.1

// growth lookup, compound = CCOC(=O)c1ccc2[nH]c(O)c(C(=Nc3ccc(N(C)C(=O)CN4CCN(C)CC4)cc3)c3ccccc3)c2c1 , result: -33.6

Entry CCCCCCNC(=O)Oc1ccc(/C(=C(/C)Cc2ccc(OC)cc2)c2ccc(OCCCN(C)C)cc2)cc1 ; growth = 41.6
